testTarget: ER-β (Rattus norvegicus (Rat), UniProt Q62986)
Sequence (Q62986 whole entry): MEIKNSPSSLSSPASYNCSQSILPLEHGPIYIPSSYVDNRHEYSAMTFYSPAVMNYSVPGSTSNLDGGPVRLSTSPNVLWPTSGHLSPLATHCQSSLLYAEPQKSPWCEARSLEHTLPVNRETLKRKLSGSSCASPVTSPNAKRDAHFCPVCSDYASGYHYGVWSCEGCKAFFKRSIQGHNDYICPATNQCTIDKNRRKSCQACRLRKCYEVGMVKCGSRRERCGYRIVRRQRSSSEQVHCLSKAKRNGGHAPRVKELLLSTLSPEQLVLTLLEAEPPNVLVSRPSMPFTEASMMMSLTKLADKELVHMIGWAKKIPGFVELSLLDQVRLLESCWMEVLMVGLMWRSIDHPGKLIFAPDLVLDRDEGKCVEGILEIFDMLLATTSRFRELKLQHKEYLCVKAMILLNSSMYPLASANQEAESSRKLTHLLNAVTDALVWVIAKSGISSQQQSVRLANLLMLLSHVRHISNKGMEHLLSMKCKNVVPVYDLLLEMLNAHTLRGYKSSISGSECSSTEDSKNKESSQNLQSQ
assayRemarks: ER-β transactivation (ERE-LUC) in COS or 293 cells
Type: cell-based
experimentalConditions: HEK293, 48 h, read-out: Estradiol activity at 100 nM of NRBA, ER-β, 100 nM compound compared to 1 nM estradiol
Here the recorded activation at 0.1 µM is given for each entry.
measure: activation at 0.1 µM (%)

>>> result("O=c1c2c(O)cc(O)cc2c(Br)cn1-c1ccc(O)cc1 [12u]")
85
>>> result("C=Cc1cn(-c2ccc(O)cc2)c(=O)c2c(O)cc(O)cc12 [14l]")
52.7
>>> result("O=c1c2ccc(O)cc2c(Br)cn1-c1ccc(O)cc1 [12b]")
79
>>> result("N#Cc1cn(-c2ccc(O)cc2)c(=O)c2c(O)cc(O)cc12 [14m]")
74.5

---

testTarget: ERβ ligand binding domain (Homo sapiens, UniProt Q92731)
Sequence (Q92731 whole entry, looked up, the tested form may be a part): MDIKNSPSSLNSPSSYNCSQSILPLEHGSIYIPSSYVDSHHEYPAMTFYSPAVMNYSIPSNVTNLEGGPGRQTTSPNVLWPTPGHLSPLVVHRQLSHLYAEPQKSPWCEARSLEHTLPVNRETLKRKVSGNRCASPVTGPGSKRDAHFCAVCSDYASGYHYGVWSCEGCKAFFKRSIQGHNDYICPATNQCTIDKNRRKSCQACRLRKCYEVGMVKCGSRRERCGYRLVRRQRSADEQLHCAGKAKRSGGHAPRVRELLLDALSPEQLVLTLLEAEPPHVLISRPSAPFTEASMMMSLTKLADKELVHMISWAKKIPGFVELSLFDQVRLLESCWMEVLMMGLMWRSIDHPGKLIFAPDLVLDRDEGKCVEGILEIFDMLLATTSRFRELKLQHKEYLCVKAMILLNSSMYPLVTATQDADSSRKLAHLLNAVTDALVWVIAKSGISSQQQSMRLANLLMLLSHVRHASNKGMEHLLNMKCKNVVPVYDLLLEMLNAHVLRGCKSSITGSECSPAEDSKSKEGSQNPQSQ
pKi: −log10 of the molar value.
measure: pKi

>>> result("O=c1c2c(O)cc(O)cc2c(Br)cn1-c1ccc(O)c(F)c1 [12z]")
8.52
>>> result("C=Cc1cn(-c2ccc(O)c(F)c2)c(=O)c2c(O)cc(O)cc12 [15c]")
8.40
>>> result("COc1ccc(-c2cn(-c3ccc(O)cc3)c(=O)c3c(O)cc(O)cc23)cc1 [15g]")
9.32
>>> result("N#Cc1cc(O)cc2c(Br)cn(-c3ccc(O)cc3)c(=O)c12 [14k]")
7.34
>>> result("O=c1c2ccc(O)cc2c(Br)cn1-c1ccc(O)cc1 [12b]")
7.31
>>> result("N#Cc1cn(-c2ccc(O)cc2)c(=O)c2c(O)cc(O)cc12 [14m]")
8.15

---

System: Rat Aortic Smooth Muscle Cells (RASMC)
assayRemarks: RASMC cell proliferation assay (WST-1)
Format: cell-based
experimentalConditions: inhibitory effect sigmoid Emax model; read-out: EC50 for inhibition of RASMC proliferation
pEC50: −log10 of the molar value.
measure: pEC50

>>> result("COc1ccc(-c2coc3cc(O)cc(O)c3c2=O)cc1 [Biochanin A, reference compound]")
5.01

---

testTarget: ERα ligand binding domain (Homo sapiens)
Sequence (P03372 whole entry, looked up, the tested form may be a part): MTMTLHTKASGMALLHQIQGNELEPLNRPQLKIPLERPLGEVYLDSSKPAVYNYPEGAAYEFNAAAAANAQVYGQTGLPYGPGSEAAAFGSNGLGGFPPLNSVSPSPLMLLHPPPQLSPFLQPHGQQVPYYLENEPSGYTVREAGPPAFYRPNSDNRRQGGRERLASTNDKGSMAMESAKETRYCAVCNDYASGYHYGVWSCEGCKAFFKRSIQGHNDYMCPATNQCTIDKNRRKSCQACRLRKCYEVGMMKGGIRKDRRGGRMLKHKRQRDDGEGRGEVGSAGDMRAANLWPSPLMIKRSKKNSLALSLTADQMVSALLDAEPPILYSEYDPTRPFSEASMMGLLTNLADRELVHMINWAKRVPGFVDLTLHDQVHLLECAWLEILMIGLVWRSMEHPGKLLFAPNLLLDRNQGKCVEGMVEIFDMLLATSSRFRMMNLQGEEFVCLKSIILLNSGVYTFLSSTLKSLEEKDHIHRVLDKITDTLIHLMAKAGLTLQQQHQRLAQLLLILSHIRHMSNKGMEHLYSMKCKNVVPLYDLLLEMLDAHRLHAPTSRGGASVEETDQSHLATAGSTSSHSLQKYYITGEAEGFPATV
assayRemarks: Competitive [3H]-estradiol binding assay, ER-α (Example 21)
experimentalConditions: 100 nM of compound; read-out: Percent Inhibition of [3H]-Estradiol Binding to ER-α
Outcome label depends on inhibition at 0.1 µM relative to 4%: at/above gives Satisfied, below gives Not satisfied.

>>> answerlabel("Oc1ccc(-n2cc(Br)c3cc(O)ccc3c2=S)cc1 [12r]")
"Satisfied"
>>> answerlabel("O=c1c2c(O)cc(O)cc2ccn1-c1ccc(O)cc1 [12l]")
"Not satisfied"
>>> answerlabel("O=c1c2ccc(O)cc2c(Br)cn1-c1ccc(O)cc1 [12b]")
"Not satisfied"
>>> answerlabel("O=c1c2c(O)cc(O)cc2ccn1-c1ccc(O)c(F)c1 [12s]")
"Satisfied"
>>> answerlabel("O=c1c2ccc(O)cc2c(Br)cn1-c1ccc(O)c(F)c1 [12d]")
"Not satisfied"
>>> answerlabel("O=c1c2c(O)cc(O)cc2c(Br)cn1-c1ccc(O)c(F)c1 [12z]")
"Satisfied"
>>> answerlabel("O=c1c2ccc(O)cc2c(Cl)cn1-c1ccc(O)cc1 [12f]")
"Not satisfied"
>>> answerlabel("O=c1c2ccc(O)cc2c(I)cn1-c1ccc(O)c(F)c1 [12n]")
"Satisfied"
>>> answerlabel("O=c1c2c(O)cc(O)c(Br)c2ccn1-c1ccc(O)cc1 [12m]")
"Satisfied"
>>> answerlabel("Oc1ccc(-n2ccc3cc(O)cc(O)c3c2=S)cc1 [12p]")
"Satisfied"
>>> answerlabel("O=c1c2c(O)cc(O)cc2c(Cl)cn1-c1ccc(O)cc1 [12y]")
"Satisfied"
